Every entry's value here was drawn from PubChem BioAssay AID652010.

# reported inhibition; entries follow
# PROCEDURE TEXT: DAX1 (NR0B1) inhibitors on StAR promoter, primary screen, cell-based, luminescence, SF-1 (NR5A1), full-length DAX-1 (AID 652010);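 further: 0% = DAX-1 cells with DMSO and 100% = cells lacking DAX-1 with DMSO; higher inhibition means more luminescence from relief of DAX-1 repression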
# CONDITION DESCRIPTION: HEK293T StAR-luciferase reporter, SF-1/DAX-1 repression relief; at 6.8 µM; active compounds read high
About 4,100 (1.1%) of roughly 370,000 compounds were called active. What follows is part of a selection rich in actives, with near analogues and random picks from the rest.
Provide the reading as a plain figure in %.

// inhibition value for `Cc1cccc(-n2c(O)c(C=Nc3ccccc3N)c(=O)[nH]c2=O)c1` : 3.64

// inhibition value for `CN1CCN(C(=O)c2ccc(NC(=O)c3ccc(Br)o3)cc2)CC1` : 0.03

// inhibition value for `CC(C)(O)C#Cc1ccc(CNC[C@H]2O[C@@H](n3cnc4c(=O)[nH]c(N)nc43)[C@H](O)[C@@H]2O)s1` : 5.95

// inhibition value for CC(C)N1CCCCC(NC(=O)C(C)(C)C)C1=O (stereo unspecified) : -0.67

// inhibition value for `CCCCSc1nnc(-c2ccc(NC(=O)CC)cc2)n1C` : -0.29

// inhibition value for `COC(=O)c1ccccc1-n1cc(COC(=O)NCCc2ccccc2)nn1` : -0.35

// inhibition value for `CCOC(=O)[C@]12CCCC3=C1N(CCC3)C(=O)[C@@H](CC(=O)NCC13CC4CC(CC(C4)C1)C3)C2` : -1.84

// inhibition value for O=C(NCCc1ccccc1)c1ccc(NC2=NC3CS(=O)(=O)CC3S2)cc1 (stereo unspecified) : -0.02

// inhibition value for `O=CN1CCN(C(=O)c2ccc(Br)o2)CC1` : -0.07

// inhibition value for `O=C(CCS(=O)(=O)c1cccc2nsnc12)N1CCN(c2ccccc2F)CC1` : 0.3

// inhibition value for CNC(=S)N1N=C(c2ccccc2)CC1c1ccc(Br)cc1 (stereo unspecified) : -0.46

// inhibition value for `O=C(CCc1ccccc1F)N1CCN(c2ccccc2)CC1` : -0.1

// inhibition value for `COc1cc(OC)cc(-c2cc3ccc(F)cc3cn2)c1` : 1.37

// inhibition value for `S=C1NC(c2ccccc2)=NCN1c1ccc(Br)cc1` : 0

// inhibition value for COC(C(=O)Nc1ccc(S(=O)(=O)Nc2ccc(C)c(C)c2)cc1)c1ccccc1 (stereo unspecified) : -1.03

// inhibition value for `O=c1c2cc([N+](=O)[O-])ccc2nc2n1CCC2` : 0.07

// inhibition value for `Cn1nc(C(C)(C)C)c(NC(=O)c2sccc2Cl)c1C(C)(C)C` : -0.4

// inhibition value for `Nn1c(SCC(=O)Nc2cccc3ccccc23)nnc1-c1cc(-c2ccc(F)cc2)n[nH]1` : -0.54

// inhibition value for `Nc1nc2c(ncn2[C@@H]2O[C@H](CNS(=O)(=O)N3CCc4ccccc4C3)[C@@H](O)[C@H]2O)c(=O)[nH]1` : -0.84

// inhibition value for `CC1CCN(c2ccc(-c3ccc(NC(=O)c4ccco4)cc3)nn2)CC1` : 2.92

###

# reported inhibition; entries follow
# PROCEDURE TEXT: DAX1 (NR0B1) inhibitors on StAR promoter, primary screen, cell-based, luminescence, SF-1 (NR5A1), full-length DAX-1 (AID 652010);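 further: 0% = DAX-1 cells with DMSO and 100% = cells lacking DAX-1 with DMSO; higher inhibition means more luminescence from relief of DAX-1 repression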
# CONDITION DESCRIPTION: HEK293T StAR-luciferase reporter, SF-1/DAX-1 repression relief; at 6.8 µM; active compounds read high
About 4,100 (1.1%) of roughly 370,000 compounds were called active. Many of the other results were omitted from the sample, so actives are more common in it than they were.
Provide the reading as a plain figure in %.

Some solved cases for reference:
COc1cccc(CNC(=O)[C@H]2CCCN2C(=O)[C@H]2CCCN2C(=O)C2CCCCC2)c1
-1.49
O=C(NCc1ccccc1)[C@H]1CCCN1C(=O)[C@H]1CCCN1C(=O)N1CCOCC1
0.17
Cc1c(C=O)c2ccccc2n1CCOc1ccccc1
-1.1
COc1ccccc1C(=O)NC1CCCCN(C(C)C)C1=O (stereo unspecified)
-0.1
Cc1ccc(NC(=O)N2c3ccccc3SC2c2ccco2)c(C)c1 (stereo unspecified)
-1.05
Cc1nn(C(=O)c2ccoc2C)c(N)c1-c1ccccc1
3.82
CC(CCN1CCC(C(O)(c2ccccc2)c2ccccc2)CC1)Oc1ccc(C(F)(F)F)cc1 (stereo unspecified)
-0.91
CCc1nc2ccc(C(=O)Nc3ccc(OC)c(OC)c3)cn2c1N(C)C(=O)c1cccc(OC)c1
-1.08

// inhibition value for `Cc1cc(C)c(C)c(S(=O)(=O)N2CCN(C(=O)c3ccc4c(=O)n5c(nc4c3)CCC5)CC2)c1C` : 5.04

// inhibition value for `O=C(NCc1cccs1)C1CCN(S(=O)(=O)c2ccccc2[N+](=O)[O-])CC1` : 0.71
